# maps each entry to its IC50
- Experimental Target: Recombinant human SHP2 full-length protein (Homo sapiens, UniProt Q06124)
- Construct: Recombinant human SHP2 full-length protein
- Sequence (Q06124 whole entry): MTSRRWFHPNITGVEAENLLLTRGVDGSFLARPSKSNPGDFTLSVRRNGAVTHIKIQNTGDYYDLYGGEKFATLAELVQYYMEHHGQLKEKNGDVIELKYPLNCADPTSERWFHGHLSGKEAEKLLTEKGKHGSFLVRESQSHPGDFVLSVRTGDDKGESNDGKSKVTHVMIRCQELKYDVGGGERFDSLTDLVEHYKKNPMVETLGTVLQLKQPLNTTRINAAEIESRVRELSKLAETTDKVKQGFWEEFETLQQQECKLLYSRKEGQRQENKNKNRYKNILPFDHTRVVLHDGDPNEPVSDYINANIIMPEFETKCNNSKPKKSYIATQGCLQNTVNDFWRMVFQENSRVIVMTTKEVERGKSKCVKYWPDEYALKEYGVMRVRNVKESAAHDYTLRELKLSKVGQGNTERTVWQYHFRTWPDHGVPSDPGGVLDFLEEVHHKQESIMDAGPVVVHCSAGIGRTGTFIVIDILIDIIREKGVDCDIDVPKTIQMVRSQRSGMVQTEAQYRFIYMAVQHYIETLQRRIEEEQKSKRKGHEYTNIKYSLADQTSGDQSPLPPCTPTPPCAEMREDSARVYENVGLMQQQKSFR
- Experiment Notes: SHP2 activity inhibition measurement (fluorescence detection, surrogate substrate DiFMUP)
- Condition: recombinant human SHP2 full-length protein activated with diphosphopeptide
Structures can show the parent of a compound that is named as a salt.
# include the unit after the value

>>> print(df.to_string())
                                   compound  metric_name  reported_measurement
0  Cn1c(N2CCC3(CCC[C@H]3N)CC2)nc(N)c(Sc2cccc3[nH]ncc23)c1=O [Compound 13, formate]         IC50                8.7 nM
1  Cn1cc2c(Cl)c(Sc3cnc(N4CCC(C)(CN)CC4)n(C)c3=O)ccc2n1 [Compound 16, formate]         IC50                 56 nM
2  Cn1c(N2CCC3(CCC[C@H]3N)CC2)ncc(Sc2ccnc3[nH]ccc23)c1=O [Compound 1, hydrochloride]         IC50                 23 nM
3  C[C@@H]1OCC2(CCN(c3ncc(Sc4ccnc5[nH]ccc45)c(=O)n3C)CC2)[C@@H]1N [Compound 18, formate]         IC50                5.5 nM
4  C[C@@H]1OCC2(CCN(c3ncc(Sc4ccc5nn(C)cc5c4Cl)c(=O)n3C)CC2)[C@@H]1N [Compound 11, formate]         IC50                  4 nM

Entry under test: Cn1c(N2CCC3(CCC[C@H]3N)CC2)ncc(Sc2ccc3[nH]ncc3c2)c1=O [Compound 6, hydrochloride] . Its IC50 was 877 nM

Entry under test: C[C@@H]1OCC2(CCN(c3ncc(Sc4ccn5nccc5c4Cl)c(=O)n3C)CC2)[C@@H]1N [Compound 12, formate] . Its IC50 was 3.1 nM
